Target Of Assay: Protein FosB (Mus musculus)
Assay Protocol: activators of delta FosB homodimer, primary screen, biochemical, fluorescence polarization, TAMRA-CDK5 oligo, single point (AID 493131);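 also: fluorescence polarization rise as delta FosB binds a TAMRA Cdk5 AP-1 oligo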
Test Settings: purified delta FosB, at 25 µM, active compounds read high, percent of positive-control signal above neutral wells
Out of some 340,000 compounds screened, about 3,300 (0.97%) were called active. What follows is part of a selection rich in actives, with near analogues and random picks from the rest.
Endpoint: activation (%)
Write the number in % without appending the unit.

Known activation results, listed for orientation:
- Compound: "CCCCNC(=O)C(C)N(CCN(C)C)C(=O)CCCCCN1C(=O)NC(c2ccc(Cl)cc2)C(C(=O)OCc2ccccc2)=C1C (stereo not given)"
  Target Of Assay: "Protein FosB (Mus musculus)"
  Numeric Result: 18.2
- Compound: "O=C(NCc1ccccc1)C1CCCN(S(=O)(=O)c2cccs2)C1 (stereo not given)"
  Target Of Assay: "Protein FosB (Mus musculus)"
  Numeric Result: -3.74
- Compound: "C=CCC(NCc1ccco1)c1ccc(OC)cc1 (stereo not given)"
  Target Of Assay: "Protein FosB (Mus musculus)"
  Numeric Result: -0.535
- Compound: "CCOc1ccc(S(=O)(=O)N2CCN(C(=O)c3oc4ccccc4c3C)CC2)cc1"
  Target Of Assay: "Protein FosB (Mus musculus)"
  Numeric Result: -13.9
- Compound: "COCCNC(=O)c1snc2ccc(Cl)cc12"
  Target Of Assay: "Protein FosB (Mus musculus)"
  Numeric Result: -8.32

Switching to the query record.
State, for Protein FosB (Mus musculus), measured activation of the compound listed here: COC(=O)c1sc2ncccc2c1OCc1ccc(Cl)cc1Cl
17
